experimental system: Human Arginase 2 (Homo sapiens (Human))
Sequence (P78540 23-354): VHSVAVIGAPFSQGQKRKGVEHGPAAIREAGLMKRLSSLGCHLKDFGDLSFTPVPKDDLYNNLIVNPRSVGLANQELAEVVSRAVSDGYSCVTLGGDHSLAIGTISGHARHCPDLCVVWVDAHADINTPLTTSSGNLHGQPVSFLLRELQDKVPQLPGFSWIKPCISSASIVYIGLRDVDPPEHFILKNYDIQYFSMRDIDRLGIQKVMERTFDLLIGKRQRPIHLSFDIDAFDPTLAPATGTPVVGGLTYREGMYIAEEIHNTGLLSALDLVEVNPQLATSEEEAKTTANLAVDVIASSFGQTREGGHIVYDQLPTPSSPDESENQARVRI
assay name: Human Arginase 2 enzyme inhibition (thioarginine/DTNB absorbance assay)
recorded conditions: recombinant enzyme 5 nM, 0.5 mM thioarginine premix, 60 min
pIC50: −log10 of the molar value.
Hi, to clarify the labels: Satisfied covers pIC50 from 6 upward, Not satisfied covers anything below 6.

Use the examples below as a reference point.
- chemical structure: "CN(C)[C@H]1CN[C@@](CCCCB(O)O)(C(=O)O)C1"
  assigned label: "Not satisfied"
- chemical structure: "NCCN[C@H]1CN[C@@](CCCCB(O)O)(C(=O)O)C1"
  assigned label: "Not satisfied"
- chemical structure: "CC[C@H](N)C(=O)N[C@H]1CN[C@@](CCCCB(O)O)(C(=O)O)C1"
  assigned label: "Satisfied"
- chemical structure: "CC(C)[C@H](N)C(=O)N(C)[C@H]1CN[C@](CCCCB(O)O)(C(=O)O)C1"
  assigned label: "Not satisfied"
- chemical structure: "CC(C)[C@H](N)C(=O)N(C)[C@H]1CN[C@@](CCCCB(O)O)(C(=O)O)C1"
  assigned label: "Not satisfied"

Problem: Reported pIC50 reaches at least 6 for N[C@@H](CO)C(=O)N[C@H]1CN[C@@](CCCCB(O)O)(C(=O)O)C1 ?
Result: Satisfied

Problem: Reported pIC50 reaches at least 6 for O=C(O)[C@@]1(CCCCB(O)O)CCCN1 ?
Result: Not satisfied

Problem: Reported pIC50 reaches at least 6 for CC(C)[C@H](N)C(=O)N[C@H]1CN[C@]2(CCCCB(O)OC2=O)C1 ?
Result: Satisfied

Problem: Reported pIC50 reaches at least 6 for CC(C)[C@H](N)C(=O)N[C@H]1CN[C@@](CCCCB(O)O)(C(=O)O)C1 ?
Result: Satisfied

Problem: Reported pIC50 reaches at least 6 for NCCN[C@H]1CN[C@](CCCCB(O)O)(C(=O)O)C1 ?
Result: Satisfied

Problem: Reported pIC50 reaches at least 6 for CN[C@H]1CN[C@](CCCCB(O)O)(C(=O)O)C1 ?
Result: Satisfied

Problem: Reported pIC50 reaches at least 6 for CN[C@H]1CN[C@@](CCCCB(O)O)(C(=O)O)C1 ?
Result: Not satisfied

Problem: Reported pIC50 reaches at least 6 for CC(C)C[C@H](N)C(=O)N[C@H]1CN[C@@](CCCCB(O)O)(C(=O)O)C1 ?
Result: Satisfied

Problem: Reported pIC50 reaches at least 6 for CC(C)[C@@H](N)C(=O)N[C@H]1CN[C@@](CCCCB(O)O)(C(=O)O)C1 ?
Result: Not satisfied

Problem: Reported pIC50 reaches at least 6 for NCC(=O)N[C@H]1CN[C@@](CCCCB(O)O)(C(=O)O)C1 ?
Result: Satisfied

Problem: Reported pIC50 reaches at least 6 for O=C(O)[C@@]1(CCCCB(O)O)C[C@@H](O)CN1 ?
Result: Not satisfied

* * *

What bioavailability was measured for each of the following?
assay name: Bioavailability / pharmacokinetic study in male rats (IV and PO)
Type: in vivo, rat
recorded conditions: plasma; pro-drug itself, observed when dosed as pro-drug; male rat, PO 5 mg/kg vs IV 2 mg/kg
Give bare numbers, in %.

Reference set (4 entries):
- chemical structure: "N[C@@H](CO)C(=O)N[C@H]1CN[C@@](CCCCB(O)O)(C(=O)O)C1"
  reading: 5.8
- chemical structure: "CC(C)(O)[C@H](N)C(=O)N[C@H]1CN[C@@](CCCCB(O)O)(C(=O)O)C1"
  reading: 25.5
- chemical structure: "CC(C)[C@H](N)C(=O)N[C@H]1CN[C@]2(CCCCB(O)OC2=O)C1"
  reading: 2.5
- chemical structure: "CC(C)[C@H](N)C(=O)N[C@H]1CN[C@@](CCCCB(O)O)(C(=O)O)C1"
  reading: 3.2

Would you kindly look at the next entry?
Problem: Answer with the recorded bioavailability of NCC(=O)N[C@H]1CN[C@@](CCCCB(O)O)(C(=O)O)C1 only.
Result: 3.8

Data origin, for the record: patent US11420984B2
